Target System: AQP1 (Homo sapiens)
Procedure Details: Oocyte swelling assay: water permeability (Pf) of AQP1-expressing oocytes, block or % stimulation
Type: cell-based
Design: expressed in transfected cells; host or cells: Xenopus oocytes
Run Conditions: arrow symbols, key not given
Source text: A method for screening compounds for their ability to modulate aquaporin activity based on a water permeability assay in Xenopus oocytes expressing aquaporins which is used to identify, assess, and characterize compounds that either block or stimulate the aquaporin channels including AQP1, AQP4 and AQP9 channels. Selection rationale and methodology. […]
Reported Endpoint: AQP-1 effect (arrow symbol)

Compound: NS(=O)(=O)c1cc(C(=O)O)c(NCc2ccco2)cc1Cl [drawing 117]
Value Reported: ═
//
Compound: COC(=O)c1cc(S(N)(=O)=O)c(Cl)cc1NCc1ccco1 [drawing 114]
Value Reported: ↓↓
//
Compound: C=CCNS(=O)(=O)c1cc(C(=O)O)c(NCc2ccco2)cc1Cl
Value Reported: ═
//
Compound: CNS(=O)(=O)c1cc(C(=O)OC)c(NCc2ccco2)cc1Cl [drawing 115]
Value Reported: ↓↓
//
Compound: CNS(=O)(=O)c1cc(C(=O)O)c(NCc2ccco2)cc1Cl
Value Reported: ↑
//
Compound: O=C(O)c1cc(S(=O)(=O)NCc2ccccc2)c(Cl)cc1NCc1ccco1
Value Reported: ↓
//
Compound: C=CCNS(=O)(=O)c1cc(C(=O)OC)c(NCc2ccco2)cc1Cl [drawing 119]
Value Reported: ═
//
Compound: COC(=O)c1cc(S(=O)(=O)NCc2ccccc2)c(Cl)cc1NCc1ccco1
Value Reported: ═

* * *

Target System: AQP4 (Homo sapiens)
Construct: expressed in transfected cells; host or cells: Xenopus oocytes
Sequence (P55087 whole entry, species assumed): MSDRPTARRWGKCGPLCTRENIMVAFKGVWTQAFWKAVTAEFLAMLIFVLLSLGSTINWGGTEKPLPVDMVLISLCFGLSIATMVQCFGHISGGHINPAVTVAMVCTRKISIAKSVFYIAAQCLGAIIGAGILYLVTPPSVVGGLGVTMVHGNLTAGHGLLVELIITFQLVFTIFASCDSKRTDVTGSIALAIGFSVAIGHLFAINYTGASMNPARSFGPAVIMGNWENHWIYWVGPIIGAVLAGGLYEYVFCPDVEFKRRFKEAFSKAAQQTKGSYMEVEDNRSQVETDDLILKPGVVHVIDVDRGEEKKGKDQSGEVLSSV
Procedure Details: Oocyte swelling assay: water permeability (Pf) of AQP4-expressing oocytes by videomicroscopy, block or % stimulation
Format: cell-based
Run Conditions: arrow symbols, key not given
Reported Endpoint: AQP-4 effect (arrow symbol)

Compound: COC(=O)c1cc(S(=O)(=O)NCc2ccccc2)c(Cl)cc1NCc1ccco1
Target System: AQP4 (Homo sapiens)
Value Reported: ↑
//
Compound: C=CCNS(=O)(=O)c1cc(C(=O)O)c(NCc2ccco2)cc1Cl
Target System: AQP4 (Homo sapiens)
Value Reported: ↑↑
//
Compound: O=C(O)c1cc(S(=O)(=O)NCc2ccccc2)c(Cl)cc1NCc1ccco1
Target System: AQP4 (Homo sapiens)
Value Reported: ═
//
Compound: NS(=O)(=O)c1cc(C(=O)O)c(NCc2ccco2)cc1Cl [drawing 117]
Target System: AQP4 (Homo sapiens)
Value Reported: ? ↑
//
Compound: CNS(=O)(=O)c1cc(C(=O)O)c(NCc2ccco2)cc1Cl
Target System: AQP4 (Homo sapiens)
Value Reported: (↑)?
//
Compound: CNS(=O)(=O)c1cc(C(=O)OC)c(NCc2ccco2)cc1Cl [drawing 115]
Target System: AQP4 (Homo sapiens)
Value Reported: ↑
//
Compound: C=CCNS(=O)(=O)c1cc(C(=O)OC)c(NCc2ccco2)cc1Cl [drawing 119]
Target System: AQP4 (Homo sapiens)
Value Reported: (↑)?
//
Compound: COC(=O)c1cc(S(N)(=O)=O)c(Cl)cc1NCc1ccco1 [drawing 114]
Target System: AQP4 (Homo sapiens)
Value Reported: ═

* * *

Target System: AQP1 (Homo sapiens, UniProt P29972)
Sequence (P29972 whole entry, species assumed): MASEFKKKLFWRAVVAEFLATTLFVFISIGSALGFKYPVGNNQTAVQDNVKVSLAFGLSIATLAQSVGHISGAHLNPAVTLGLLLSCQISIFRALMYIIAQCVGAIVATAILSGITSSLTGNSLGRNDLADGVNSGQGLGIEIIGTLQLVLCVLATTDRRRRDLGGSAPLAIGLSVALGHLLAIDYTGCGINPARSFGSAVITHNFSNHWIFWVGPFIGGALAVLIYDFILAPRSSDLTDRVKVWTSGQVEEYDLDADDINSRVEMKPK
Procedure Details: Oocyte swelling assay: water permeability (Pf) of AQP1-expressing oocytes, block or % stimulation
Type: cell-based
Set-up: expressed in transfected cells; host or cells: Xenopus oocytes
Run Conditions: ↓ block, ↑ stimulation, ═ no effect; symbols not defined in the table
Reported Endpoint: AQP-1 effect (arrow symbol)

Molecule: C=CCNS(=O)(=O)c1cc(C(=O)OC)c(NCc2ccco2)cc1Cl
Target System: AQP1 (Homo sapiens, UniProt P29972)
Value Reported: ═
--
Molecule: NS(=O)(=O)c1cc(C(=O)O)c(NCc2ccco2)cc1NCc1ccco1
Target System: AQP1 (Homo sapiens, UniProt P29972)
Value Reported: ═
--
Molecule: COC(=O)c1cc(S(N)(=O)=O)c(Cl)cc1NCc1ccco1 [AQP-0022, Furosemide methyl ester]
Target System: AQP1 (Homo sapiens, UniProt P29972)
Value Reported: ↓↓
--
Molecule: NS(=O)(=O)c1cc(C(=O)O)c(NCc2ccco2)cc1Cl [furosemide, Furosemide, reference compound]
Target System: AQP1 (Homo sapiens, UniProt P29972)
Value Reported: ═
--
Molecule: CNS(=O)(=O)c1cc(C(=O)OC)c(NCc2ccco2)cc1Cl
Target System: AQP1 (Homo sapiens, UniProt P29972)
Value Reported: ↓↓

* * *

Target System: AQP4 (Homo sapiens)
Construct: expressed in transfected cells; host or cells: Xenopus oocytes
Procedure Details: Oocyte swelling assay: water permeability (Pf) of AQP4-expressing oocytes by videomicroscopy, block or % stimulation
Assay type: cell-based
Run Conditions: ↓ block, ↑ activation, ═ no effect; symbols not defined in the table

Molecule: CCCCNc1cc(C(=O)NCCN2CCS(=O)(=O)CC2)cc(S(N)(=O)=O)c1Oc1ccccc1 [AQP-0009]
Target System: AQP4 (Homo sapiens)
AQP-4 effect (arrow symbol): ↑
--
Molecule: NS(=O)(=O)c1cc(C(=O)O)c(NCc2ccco2)cc1Cl [furosemide, Furosemide, reference compound]
Target System: AQP4 (Homo sapiens)
AQP-4 effect (arrow symbol): ↓↓
--
Molecule: CCCCNc1cc(C(=O)OC)cc(S(N)(=O)=O)c1Oc1ccccc1 [AQP-0001, bumetanide methyl ester]
Target System: AQP4 (Homo sapiens)
AQP-4 effect (arrow symbol): ↓↓
--
Molecule: CCCCNc1cc(C(=O)N2CCOCC2)cc(S(N)(=O)=O)c1Oc1ccccc1 [AQP-0006]
Target System: AQP4 (Homo sapiens)
AQP-4 effect (arrow symbol): ↑
--
Molecule: NS(=O)(=O)c1cc(C(=O)O)c(NCc2ccco2)cc1NCc1ccco1 [AQP-0033]
Target System: AQP4 (Homo sapiens)
AQP-4 effect (arrow symbol): ↑
--
Molecule: C=CCNS(=O)(=O)c1cc(C(=O)OC)c(NCc2ccco2)cc1Cl [AQP-0027]
Target System: AQP4 (Homo sapiens)
AQP-4 effect (arrow symbol): (↓)?
--
Molecule: COC(=O)c1cc(S(N)(=O)=O)c(Cl)cc1NCc1ccco1 [AQP-0022, Furosemide methyl ester]
Target System: AQP4 (Homo sapiens)
AQP-4 effect (arrow symbol): ═
--
Molecule: CCCCNc1cc(C(=O)Nc2ccncc2)cc(S(N)(=O)=O)c1Oc1ccccc1 [AQP-0013]
Target System: AQP4 (Homo sapiens)
AQP-4 effect (arrow symbol): ↓↓
--
Molecule: CNS(=O)(=O)c1cc(C(=O)OC)c(NCc2ccco2)cc1Cl [AQP-0023]
Target System: AQP4 (Homo sapiens)
AQP-4 effect (arrow symbol): ↑
--
Molecule: CCCCNc1c(Oc2ccccc2)cc(S(N)(=O)=O)cc1C(=O)O [Bumetanide AQP-0000]
Target System: AQP4 (Homo sapiens)
AQP-4 effect (arrow symbol): ↓
--
Molecule: CCCCNc1cc(C(=O)NCCN2CCN(C)CC2)cc(S(N)(=O)=O)c1Oc1ccccc1 [AQP-0007]
Target System: AQP4 (Homo sapiens)
AQP-4 effect (arrow symbol): ↑↑
